Measured IC50 of individual entries
Target: full-length human Mineralocorticoid Receptor (MR) (Homo sapiens)
Sequence (P08235 1-984): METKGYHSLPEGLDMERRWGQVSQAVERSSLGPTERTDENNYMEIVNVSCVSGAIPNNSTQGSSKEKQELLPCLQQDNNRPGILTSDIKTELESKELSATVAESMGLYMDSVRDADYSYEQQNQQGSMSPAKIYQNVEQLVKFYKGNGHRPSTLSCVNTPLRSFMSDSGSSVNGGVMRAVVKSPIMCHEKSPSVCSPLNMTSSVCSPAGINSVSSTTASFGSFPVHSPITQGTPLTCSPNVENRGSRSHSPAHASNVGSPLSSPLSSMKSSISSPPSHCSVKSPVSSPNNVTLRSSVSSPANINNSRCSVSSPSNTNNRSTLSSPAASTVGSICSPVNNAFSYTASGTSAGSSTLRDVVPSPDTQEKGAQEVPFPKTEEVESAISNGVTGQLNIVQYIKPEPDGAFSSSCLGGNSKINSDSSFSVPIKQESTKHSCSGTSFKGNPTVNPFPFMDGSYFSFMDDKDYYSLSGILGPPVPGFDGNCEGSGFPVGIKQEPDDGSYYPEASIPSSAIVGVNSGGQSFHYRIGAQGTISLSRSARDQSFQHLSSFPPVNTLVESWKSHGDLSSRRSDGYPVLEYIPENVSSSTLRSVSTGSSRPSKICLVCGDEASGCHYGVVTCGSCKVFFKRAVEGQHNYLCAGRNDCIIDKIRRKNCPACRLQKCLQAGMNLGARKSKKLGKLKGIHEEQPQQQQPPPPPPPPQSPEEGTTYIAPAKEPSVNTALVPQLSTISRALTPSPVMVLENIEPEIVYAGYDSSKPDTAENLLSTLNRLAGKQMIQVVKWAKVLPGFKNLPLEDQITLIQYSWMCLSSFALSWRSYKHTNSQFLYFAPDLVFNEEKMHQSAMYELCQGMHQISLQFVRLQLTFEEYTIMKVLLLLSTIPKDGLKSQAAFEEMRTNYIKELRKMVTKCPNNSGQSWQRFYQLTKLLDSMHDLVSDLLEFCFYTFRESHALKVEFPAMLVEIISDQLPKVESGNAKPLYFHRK
Test: human MR NH Pro assay (PathHunter Protein:Protein interaction assay), MR antagonist activity
Details: PathHunter CHO-K1 cells overexpressing human MR; aldosterone 0.3 nM to about 1 nM; 6 hours at 37° C.; luminescence; read-out: IP (rating); IP is the inflection point for a given dose-response titration curve
Text: The activity of the compounds of the present invention regarding mineralocorticoid receptor antagonism can be evaluated using the following assay. Assessment of MR Potency in HMR NH Pro Assay […] 8. Plates were read on Envision (PerkinElmer) luminesence plate reader and analyzed using ADA.
assay_metric: IC50

[
  {
    "compound": "CCC(CC)(c1ccc(Cl)cc1)c1nn(CC(=O)OC)c2ccccc12 [Example 19]",
    "assay_metric": "IC50",
    "result": "100 to 500 nM"
  },
  {
    "compound": "CS(=O)(=O)Nc1cccc2c(C(CCCO)c3ccc(Cl)cc3F)n[nH]c12 (stereo not shown) [Example 5]",
    "assay_metric": "IC50",
    "result": "100 to 500 nM"
  },
  {
    "compound": "Cn1nc(C(CCC#N)c2ccc(Cl)cc2F)c2ccccc21 (stereo not shown) [Example 13]",
    "assay_metric": "IC50",
    "result": "500 to 6000 nM"
  },
  {
    "compound": "COC(=O)Cn1nc(Cc2ccc(Cl)cc2)c2ccccc21 [Example 20]",
    "assay_metric": "IC50",
    "result": "500 to 6000 nM"
  },
  {
    "compound": "N#CCCC(c1ccc(Cl)cc1F)c1nn(Cc2ccccc2)c2ccccc12 (stereo not shown) [Example 16]",
    "assay_metric": "IC50",
    "result": "500 to 6000 nM"
  },
  {
    "compound": "N#CCCC(c1ccc(Cl)cc1F)c1n[nH]c2c(-c3cccnc3)cccc12 (stereo not shown) [Example 3]",
    "assay_metric": "IC50",
    "result": "500 to 6000 nM"
  },
  {
    "compound": "COC(=O)Cn1nc(C(CCC#N)c2ccc(Cl)cc2F)c2ccccc21 (stereo not shown) [Example 17A]",
    "assay_metric": "IC50",
    "result": "500 to 6000 nM"
  }
]
